# experiment.notes: Equilibrium solubility in HPβCD or HPγCD in acetate (first Table I)
# Type: physicochemical
# condition.set: 5% HPγCD in acetate, pH 4.505, aqueous with cosolvent or surfactant or cyclodextrin, thermodynamic from solid, 5% HPγCD in Acetate, pH 4.505, equilibrium solubility at day 3; read-out: 1H-indole-1-carboxamide Solubility
measured.metric: solubility at 3 day (mg/mL)
Numbers only, in mg/mL.

Provide only the value of recorded solubility at 3 day for CNCc1cc(Oc2ccc3c(ccn3C(=O)Nc3cc(C(F)(F)F)n(C)n3)c2)ncn1
21.9

====

# experiment.notes: Equilibrium solubility in HPβCD or HPγCD in acetate (first Table I)
# Assay type: physicochemical
# condition.set: 2.5% HPβCD in acetate, pH 4.606, aqueous with cosolvent or surfactant or cyclodextrin, thermodynamic from solid, 2.5% HPβCD in Acetate, pH 4.606, equilibrium solubility at day 3; read-out: 1H-indole-1-carboxamide Solubility
measured.metric: solubility at 3 day (mg/mL)
Give bare numbers, in mg/mL.

Output solubility at 3 day of CNCc1cc(Oc2ccc3c(ccn3C(=O)Nc3cc(C(F)(F)F)n(C)n3)c2)ncn1
12.5

====

# experiment.notes: Ocular tissue and plasma PK after repeated t.i.d. monocular dosing for 7 days
# Assay type: in vivo, pigmented rabbits
# condition.set: NZW×NZR (pigmented), rabbit, topical; Plasma, 2% t.i.d. 7 days, Tlast = 96 h; read-out: AUClast Mean
measured.metric: AUC(0-t) (ng·h/mL)
Numbers only, in ng·h/mL.

Annotate the molecule CNCc1cc(Oc2ccc3c(ccn3C(=O)Nc3cc(C(F)(F)F)n(C)n3)c2)ncn1 with its measured AUC(0-t).
5.12

====

# experiment.notes: Equilibrium solubility in HPβCD or HPγCD in acetate (first Table I)
# Assay type: physicochemical
# condition.set: 10% HPβCD in acetate, pH 4.61, aqueous with cosolvent or surfactant or cyclodextrin, thermodynamic from solid, 10% HPβCD in Acetate, pH 4.610, equilibrium solubility at day 3; read-out: 1H-indole-1-carboxamide Solubility
measured.metric: solubility at 3 day (mg/mL)
Give bare numbers, in mg/mL.

Identify solubility at 3 day associated with the molecule CNCc1cc(Oc2ccc3c(ccn3C(=O)Nc3cc(C(F)(F)F)n(C)n3)c2)ncn1
30.6

====

# experiment.notes: Ocular tissue and plasma PK after repeated t.i.d. monocular dosing for 7 days
# Type: in vivo, pigmented rabbits
# condition.set: NZW×NZR (pigmented), rabbit, cornea of the dosed (OD) eye, topical or ocular; Cornea OD (dosed eye), 2% t.i.d. 7 days
measured.metric: Cmax (ng/g)
Answers are plain numbers, in ng/g.

Identify measured Cmax corresponding to CNCc1cc(Oc2ccc3c(ccn3C(=O)Nc3cc(C(F)(F)F)n(C)n3)c2)ncn1 [LHA510]
32300

====

# experiment.notes: Ocular tissue and plasma PK after repeated t.i.d. monocular dosing for 7 days
# Type: in vivo, pigmented rabbits
# condition.set: pigmented NZW×NZR, rabbit, retina of the dosed (OD) eye, topical or ocular; Retina OD (dosed eye), 2% t.i.d. 7 days
measured.metric: Tmax (h)
Answers are plain numbers, in h.

Please indicate Tmax recorded for CNCc1cc(Oc2ccc3c(ccn3C(=O)Nc3cc(C(F)(F)F)n(C)n3)c2)ncn1 [LHA510]
18

====

# experiment.notes: Solubility in 8% HP-γ-CD in acetate buffer with different pH adjustment agents (Table III)
# Type: physicochemical
# condition.set: pH 4.887, aqueous with cosolvent or surfactant or cyclodextrin, pH adjustment agent 1N Hydrochloric acid, final pH 4.887, read-out: 1H-indole-1-carboxamide Solubility
measured.metric: solubility (mg/mL)
One number for each entry, in mg/mL.

Give the value of solubility reported for the following: CNCc1cc(Oc2ccc3c(ccn3C(=O)Nc3cc(C(F)(F)F)n(C)n3)c2)ncn1 [LHA510]
15.5

====

# experiment.notes: Ocular tissue and plasma PK after repeated t.i.d. monocular dosing for 7 days
# Assay type: in vivo, pigmented rabbits
# condition.set: pigmented NZW×NZR, rabbit, retina of the undosed (OS) eye, topical or ocular; Retina OS (undosed eye), 2% t.i.d. 7 days
measured.metric: Cmax (ng/g)
Numbers only, in ng/g.

Could you please provide reported Cmax for CNCc1cc(Oc2ccc3c(ccn3C(=O)Nc3cc(C(F)(F)F)n(C)n3)c2)ncn1 [LHA510] ? Thanks!
67.2

====

# experiment.notes: Equilibrium solubility in HPβCD or HPγCD in acetate (first Table I)
# Format: physicochemical
# condition.set: 10% HPγCD in acetate, pH 4.668, aqueous with cosolvent or surfactant or cyclodextrin, thermodynamic from solid, 10% HPγCD in Acetate, pH 4.668, equilibrium solubility at day 3; read-out: 1H-indole-1-carboxamide Solubility
measured.metric: solubility at 3 day (mg/mL)
Numbers only, in mg/mL.

Please indicate solubility at 3 day recorded for CNCc1cc(Oc2ccc3c(ccn3C(=O)Nc3cc(C(F)(F)F)n(C)n3)c2)ncn1
34.3

====

# experiment.notes: Solubility in 5% HP-β-CD at pH 4.5 versus pH 7 (Table II)
# Type: physicochemical
# condition.set: pH 7, aqueous buffer; read-out: intrinsic solubility
measured.metric: solubility

Return solubility (reported value) for this molecule: CNCc1cc(Oc2ccc3c(ccn3C(=O)Nc3cc(C(F)(F)F)n(C)n3)c2)ncn1 [LHA510]
~7 µg/mL

====

# experiment.notes: Ocular tissue and plasma PK after repeated t.i.d. monocular dosing for 7 days
# Type: in vivo, pigmented rabbits
# condition.set: pigmented NZW×NZR, rabbit, RPE/choroid of the undosed (OS) eye, topical or ocular; RPE/Choroid OS (undosed eye), 2% t.i.d. 7 days
measured.metric: Tmax (h)
One number for each entry, in h.

Look up and report measured Tmax for this entry: CNCc1cc(Oc2ccc3c(ccn3C(=O)Nc3cc(C(F)(F)F)n(C)n3)c2)ncn1
18

====

# experiment.notes: Solubility in 8% HP-γ-CD in acetate buffer with different pH adjustment agents (Table III)
# Format: physicochemical
# condition.set: pH 4.955, aqueous with cosolvent or surfactant or cyclodextrin, pH adjustment agent 1N Lactic acid, final pH 4.955, read-out: 1H-indole-1-carboxamide Solubility
measured.metric: solubility (mg/mL)
One number for each entry, in mg/mL.

Please report the measured solubility for CNCc1cc(Oc2ccc3c(ccn3C(=O)Nc3cc(C(F)(F)F)n(C)n3)c2)ncn1
33

====

# experiment.notes: Ocular tissue and plasma PK after repeated t.i.d. monocular dosing for 7 days
# Format: in vivo, pigmented rabbits
# condition.set: NZW×NZR (pigmented), rabbit, cornea of the undosed (OS) eye, topical or ocular; Cornea OS (undosed eye), 2% t.i.d. 7 days
measured.metric: Cmax (ng/g)
Answers are plain numbers, in ng/g.

Given CNCc1cc(Oc2ccc3c(ccn3C(=O)Nc3cc(C(F)(F)F)n(C)n3)c2)ncn1 , respond with its Cmax.
47.5

====

# experiment.notes: Ocular tissue and plasma PK after repeated t.i.d. monocular dosing for 7 days
# Format: in vivo, pigmented rabbits
# condition.set: pigmented NZW×NZR, rabbit, RPE/choroid of the undosed (OS) eye, topical or ocular; RPE/Choroid OS (undosed eye), 2% t.i.d. 7 days
measured.metric: Cmax (ng/g)
Numbers only, in ng/g.

Identify measured Cmax associated with CNCc1cc(Oc2ccc3c(ccn3C(=O)Nc3cc(C(F)(F)F)n(C)n3)c2)ncn1 [LHA510]
3950

====

# experiment.notes: Solubility in 8% HP-γ-CD in acetate buffer with different pH adjustment agents (Table III)
# Type: physicochemical
# condition.set: pH 4.872, aqueous with cosolvent or surfactant or cyclodextrin, pH adjustment agent 1N Citric acid, final pH 4.872, read-out: 1H-indole-1-carboxamide Solubility
measured.metric: solubility (µg/mL)
One number for each entry, in µg/mL.

Fill in reported solubility for this entry: CNCc1cc(Oc2ccc3c(ccn3C(=O)Nc3cc(C(F)(F)F)n(C)n3)c2)ncn1
6880

====

# experiment.notes: Ocular tissue and plasma PK after repeated t.i.d. monocular dosing for 7 days
# Format: in vivo, pigmented rabbits
# condition.set: NZW×NZR (pigmented), rabbit, cornea of the dosed (OD) eye, topical or ocular; Cornea OD (dosed eye), 2% t.i.d. 7 days
# Method: In the contralateral undosed eyes of the 2% t.i.d treatment group, N-(1-methyl-5-(trifluoromethyl)-1H-pyrazol-3-yl)-5-((6-((methylamino)methyl)pyrimidin-4-yl)oxy)-1H-indole-1-carboxamide exposure was lower with the AUClast values of 1260 ng*h/g in cornea, 293000 ng*h/g in RPE/choroid and 3640 ng*h/g in retina. […]
measured.metric: Tmax (h)
Answers are plain numbers, in h.

For the compound CNCc1cc(Oc2ccc3c(ccn3C(=O)Nc3cc(C(F)(F)F)n(C)n3)c2)ncn1 [LHA510] , give its measured Tmax value.
1

====

# experiment.notes: Solubility in 8% HP-γ-CD in acetate buffer with different pH adjustment agents (Table III)
# Assay type: physicochemical
# condition.set: pH 4.887, aqueous with cosolvent or surfactant or cyclodextrin, pH adjustment agent 1N Acetic acid, final pH 4.887, read-out: 1H-indole-1-carboxamide Solubility
measured.metric: solubility (mg/mL)
Numbers only, in mg/mL.

Fill in solubility for record CNCc1cc(Oc2ccc3c(ccn3C(=O)Nc3cc(C(F)(F)F)n(C)n3)c2)ncn1
30.3

Where do these numbers come from? They come from patent US10174006B2.
